MEASUREMENT_PROTOCOL: qHTS Assay for Identifying Gametocytocidal Compounds (AID 743244);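 further: on the % scale 0 is the no-effect control and ±100 the full control effect; actives lower the fluorescent signal which means gametocytes are killed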
SETTINGS: P. falciparum 3D7 stage III-V gametocytes, alamarBlue, 72 h; hits give low values
Results filed as inconclusive are left out.
OBSERVABLE: max response (%)
The reply should be a number in %, with the unit left off.

Request: Please look up its max response: `CN(C)CCCO[C@@H]1[C@H]2OC(C)(C)O[C@H]2O[C@@H]1[C@H](O)CO`
Result: 19.5

Request: Please look up its max response: `O=C(Nc1ccccc1)c1cc([N+](=O)[O-])ccc1Cl`
Result: -5.62

Request: Please look up its max response: `CCCCCCCCCCCC(=O)[O][Sn]([CH2]CCC)([CH2]CCC)[O]C(=O)CCCCCCCCCCC`
Result: -1.72

Request: Please look up its max response: `CCCCC#Cc1nc(NC)c2ncn([C@@H]3O[C@H](CO)[C@@H](O)[C@H]3O)c2n1`
Result: 34.4

Request: Please look up its max response: `C=CCCCCCCCCC(=O)O`
Result: 8

Request: Please look up its max response: `O=C1NC(=O)/C(=C/c2ccc(-c3ccc(F)cc3O)o2)S1`
Result: -4.42

Request: Please look up its max response: NCC1OC(O[C@H]2[C@H](O)[C@@H](OC3C(O)C(N)CC(N)C3OC3OC(CO)C(O)C(O)C3N)O[C@@H]2CO)C(N)C(O)C1O (some centres undefined)
Result: 40.6

Request: Please look up its max response: `CN(C)CCn1nnnc1SCC1=C(C(=O)O)N2C(=O)[C@@H](NC(=O)Cc3csc(N)n3)[C@H]2SC1`
Result: 19.2

Request: Please look up its max response: C#CC1(O)CC[C@H]2[C@@H]3CCC4=CCCC[C@@H]4[C@H]3CC[C@@]21C (some centres undefined)
Result: 18.8
